Test: Chromatographic hydrophobicity index, logD of the compound at pH 7.4
Type: physicochemical
Settings: buffer
Checkbox rule: chromatographic logD lower than 4 = Y; chromatographic logD not lower than 4 = N.

• CN(C)S(=O)(=O)c1ccc(N2CC[C@@H](O)C2)c(-c2cc3ccccc3[nH]2)c1 = N
• CN(C)S(=O)(=O)c1ccc(N2CC[C@H](O)C2)c(-c2cc3ccccc3[nH]2)c1 = N
• CN(C)S(=O)(=O)c1ccc(N2CCC2)c(-c2cc3ccccc3[nH]2)c1 = N
• C[S@@](=N)(=O)c1ccc(N2CC[C@H](O)C2)c(-c2cc3ccccc3[nH]2)c1 = Y
• Cc1cnc(NC(=O)c2cc(S(=O)(=O)N(C)C)ccc2N2CCCC2)s1 = N
• CCS(=O)(=O)c1ccc(N2CC[C@H](O)C2)c(-c2cc3ccccc3[nH]2)c1 = N
• O=C([C@@H]1CCN1S(=O)(=O)c1ccc(N2CC[C@@H](O)C2)c(-c2cc3ccccc3[nH]2)c1)N1CCOCC1 = Y
• O=C([C@@H]1CCN1S(=O)(=O)c1ccc(N2CCC(F)(F)C2)c(-c2cc3ccccc3[nH]2)c1)N1CCOCC1 = N
• O=C([C@H]1CCN1S(=O)(=O)c1ccc(N2CCC(F)(F)C2)c(-c2cc3ccccc3[nH]2)c1)N1CCOCC1 = N
• CN(C)S(=O)(=O)c1ccc(N2CCC(F)(F)C2)c(-c2cc3ccccc3[nH]2)c1 = N
• CN(C)S(=O)(=O)c1ccc(N2CCCC2)c(-c2cc3ccccc3[nH]2)c1 = N
• C[S@](=N)(=O)c1ccc(N2CC[C@H](O)C2)c(-c2cc3ccccc3[nH]2)c1 = Y

====

# Lookup of reported CL free keyed by entry
Assay: Unbound clearance in CD1 mouse at 2 mg/kg,po or 1 mg/kg,iv administrated upto 60 mins by LC-MS/MS analysis
Format: ADME, organism-based
Conditions: in vivo, 1 h
experimental-endpoint: CL free (mL/min/kg)

- CN(C)S(=O)(=O)c1ccc(N2CC[C@H](O)C2)c(-c2cc3ccccc3[nH]2)c1: 2268
- CCS(=O)(=O)c1ccc(N2CC[C@H](O)C2)c(-c2cc3ccccc3[nH]2)c1: 706
- C[S@@](=N)(=O)c1ccc(N2CC[C@H](O)C2)c(-c2cc3ccccc3[nH]2)c1: 38
- CN(C)S(=O)(=O)c1ccc(N2CCCC2)c(-c2cc3ccccc3[nH]2)c1: 61467

====

Test: MRT in Wistar Han rat at 2 mg/kg,po or 1 mg/kg,iv administrated upto 60 mins by LC-MS/MS analysis
Format: ADME, organism-based
Conditions: in vivo
experimental-endpoint: MRT (min)

- CN(C)S(=O)(=O)c1ccc(N2CCCC2)c(-c2cc3ccccc3[nH]2)c1: 42
- Cc1cnc(NC(=O)c2cc(S(=O)(=O)N(C)C)ccc2N2CCCC2)s1: 18

====

Biological target: Sodium channel protein type 5 subunit alpha (Homo sapiens, UniProt Q14524)
Sequence (Q14524 whole entry): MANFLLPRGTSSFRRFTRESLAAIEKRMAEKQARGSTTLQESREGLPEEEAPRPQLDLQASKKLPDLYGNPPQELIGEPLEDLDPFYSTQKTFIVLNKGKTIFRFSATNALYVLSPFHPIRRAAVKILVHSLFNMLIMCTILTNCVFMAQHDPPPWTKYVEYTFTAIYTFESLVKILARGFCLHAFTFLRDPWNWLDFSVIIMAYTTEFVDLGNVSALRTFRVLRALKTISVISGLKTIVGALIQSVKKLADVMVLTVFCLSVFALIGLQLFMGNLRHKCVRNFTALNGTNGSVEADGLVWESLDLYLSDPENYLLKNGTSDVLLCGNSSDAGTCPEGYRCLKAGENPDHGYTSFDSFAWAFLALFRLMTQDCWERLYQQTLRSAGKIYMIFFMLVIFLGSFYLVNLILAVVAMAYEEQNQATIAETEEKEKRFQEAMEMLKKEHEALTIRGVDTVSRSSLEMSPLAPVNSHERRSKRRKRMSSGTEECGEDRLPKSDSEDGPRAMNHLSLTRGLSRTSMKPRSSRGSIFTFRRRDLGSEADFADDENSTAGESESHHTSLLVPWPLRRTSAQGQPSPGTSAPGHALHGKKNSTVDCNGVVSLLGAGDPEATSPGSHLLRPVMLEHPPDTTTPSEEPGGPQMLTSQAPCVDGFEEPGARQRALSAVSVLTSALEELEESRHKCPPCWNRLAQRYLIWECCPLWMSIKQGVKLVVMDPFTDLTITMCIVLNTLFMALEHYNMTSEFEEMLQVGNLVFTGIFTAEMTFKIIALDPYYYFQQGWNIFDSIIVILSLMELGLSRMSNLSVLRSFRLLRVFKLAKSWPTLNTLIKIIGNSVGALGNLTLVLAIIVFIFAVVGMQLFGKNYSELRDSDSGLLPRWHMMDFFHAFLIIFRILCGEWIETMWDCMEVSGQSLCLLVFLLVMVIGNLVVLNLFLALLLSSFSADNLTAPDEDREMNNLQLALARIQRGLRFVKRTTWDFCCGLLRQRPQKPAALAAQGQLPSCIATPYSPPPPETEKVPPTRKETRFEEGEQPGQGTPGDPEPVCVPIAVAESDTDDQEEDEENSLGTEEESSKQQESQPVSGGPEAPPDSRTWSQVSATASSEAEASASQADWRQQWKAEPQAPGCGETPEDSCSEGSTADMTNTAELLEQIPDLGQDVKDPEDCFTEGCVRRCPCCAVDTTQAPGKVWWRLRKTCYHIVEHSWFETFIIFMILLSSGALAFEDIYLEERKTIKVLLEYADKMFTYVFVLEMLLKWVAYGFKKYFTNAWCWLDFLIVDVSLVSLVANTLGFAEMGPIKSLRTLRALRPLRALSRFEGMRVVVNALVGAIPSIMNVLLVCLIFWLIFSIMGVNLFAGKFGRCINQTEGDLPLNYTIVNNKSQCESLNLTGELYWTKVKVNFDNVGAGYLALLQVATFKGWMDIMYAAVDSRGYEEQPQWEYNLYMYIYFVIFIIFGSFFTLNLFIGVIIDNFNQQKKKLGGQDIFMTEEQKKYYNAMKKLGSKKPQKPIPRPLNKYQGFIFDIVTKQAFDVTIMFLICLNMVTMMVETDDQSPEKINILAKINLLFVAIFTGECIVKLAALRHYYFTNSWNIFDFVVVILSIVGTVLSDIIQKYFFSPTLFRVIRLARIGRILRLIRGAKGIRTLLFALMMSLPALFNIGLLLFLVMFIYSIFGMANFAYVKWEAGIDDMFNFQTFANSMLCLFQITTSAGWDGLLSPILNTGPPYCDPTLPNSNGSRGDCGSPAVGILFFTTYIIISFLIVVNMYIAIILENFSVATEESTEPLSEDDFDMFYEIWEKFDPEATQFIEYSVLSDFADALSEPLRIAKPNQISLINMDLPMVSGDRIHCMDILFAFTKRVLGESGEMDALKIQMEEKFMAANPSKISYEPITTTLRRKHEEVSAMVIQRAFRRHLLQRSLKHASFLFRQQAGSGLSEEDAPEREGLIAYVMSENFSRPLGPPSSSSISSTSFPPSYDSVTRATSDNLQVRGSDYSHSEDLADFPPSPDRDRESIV
Assay: Inhibition of Nav1.5 (unknown origin)
experimental-endpoint: IC50

• CN(C)S(=O)(=O)c1ccc(N2CC[C@H](O)C2)c(-c2cc3ccccc3[nH]2)c1 = ~20 µM

====

# Lookup of reported solubility keyed by entry
Test: Solubility of compound in FaSSIF
Format: ADME
experimental-endpoint: solubility (mg/mL)

* C[S@@](=N)(=O)c1ccc(N2CC[C@H](O)C2)c(-c2cc3ccccc3[nH]2)c1 | 0.767
* CCS(=O)(=O)c1ccc(N2CC[C@H](O)C2)c(-c2cc3ccccc3[nH]2)c1 | 0.13
* CN(C)S(=O)(=O)c1ccc(N2CC[C@H](O)C2)c(-c2cc3ccccc3[nH]2)c1 | 0.053
